Data origin: ChEMBL document CHEMBL1134286

assay: Minimum inhibitory concentration against Streptococcus pneumoniae 5737 MLSB; type: functional
quantity: MIC

CC[C@H]1OC(=O)[C@H](C)C(=O)[C@H](C)[C@@H](O[C@@H]2O[C@H](C)C[C@H](N(C)C)[C@H]2O)[C@](C)(OC/C=C/c2cccnc2)C[C@@H](C)C(=O)[C@H](C)[C@H]2NC(=O)O[C@@]21C > 128 µg/mL

Return the recorded MIC value; entry: `C=CCO[C@]1(C)C[C@@H](C)C(=O)[C@H](C)[C@H]2NC(=O)O[C@]2(C)[C@@H](CC)OC(=O)[C@H](C)[C@@H](O[C@H]2C[C@@](C)(OC)[C@@H](O)[C@H](C)O2)[C@H](C)[C@H]1O[C@@H]1O[C@H](C)C[C@H](N(C)C)[C@H]1O`
> 128 µg/mL

====

tested on: Streptococcus pneumoniae; experiment: Minimum inhibitory concentration against Streptococcus pneumoniae 6303 (erythromycin susceptible strain); type: functional
quantity: MIC (µg/mL)
One number for each entry, in µg/mL.

Fill in MIC for each of the 5 compounds listed.
1. CC[C@H]1OC(=O)[C@H](C)C(=O)[C@H](C)[C@@H](O[C@@H]2O[C@H](C)C[C@H](N(C)C)[C@H]2O)[C@](C)(OCCCc2cnc3ccccc3c2)C[C@@H](C)C(=O)[C@H](C)[C@H]2NC(=O)O[C@@]21C
2. CC[C@H]1OC(=O)[C@H](C)C(=O)[C@H](C)[C@@H](O[C@@H]2O[C@H](C)C[C@H](N(C)C)[C@H]2O)[C@](C)(OC)C[C@@H](C)C(=O)[C@H](C)[C@H]2N(CCCCn3cnc(-c4cccnc4)c3)C(=O)O[C@]12C
3. CC[C@H]1OC(=O)[C@H](C)C(=O)[C@H](C)[C@@H](O[C@@H]2O[C@H](C)C[C@H](N(C)C)[C@H]2O)[C@](C)(OC/C=C/c2cnc3cccnc3c2)C[C@@H](C)C(=O)[C@H](C)[C@H]2NC(=O)O[C@@]21C
4. CC[C@H]1OC(=O)[C@H](C)[C@@H](O[C@H]2C[C@@](C)(OC)[C@@H](O)[C@H](C)O2)[C@H](C)[C@@H](O[C@@H]2O[C@H](C)C[C@H](N(C)C)[C@H]2O)[C@](C)(O)C[C@@H](C)CN(C)[C@H](C)[C@@H](O)[C@]1(C)O
5. CC[C@H]1OC(=O)[C@H](C)C(=O)[C@H](C)[C@@H](O[C@@H]2O[C@H](C)C[C@H](N(C)C)[C@H]2O)[C@](C)(OC/C=C/c2ccc3nccnc3c2)C[C@@H](C)C(=O)[C@H](C)[C@H]2NC(=O)O[C@@]21C

1. 0.015
2. 0.004
3. 0.015
4. 0.12
5. 0.015

Report MIC for each item below.
1. CC[C@H]1OC(=O)[C@H](C)C(=O)[C@H](C)[C@@H](O[C@@H]2O[C@H](C)C[C@H](N(C)C)[C@H]2O)[C@](C)(OC/C=C/c2ccccc2)C[C@@H](C)C(=O)[C@H](C)[C@H]2NC(=O)O[C@@]21C
2. CC[C@H]1OC(=O)[C@H](C)C(=O)[C@H](C)[C@@H](O[C@@H]2O[C@H](C)C[C@H](N(C)C)[C@H]2O)[C@](C)(OC/C=C/c2cnc3ccccc3c2)C[C@@H](C)C(=O)[C@H](C)[C@@H](O)[C@]1(C)O
3. CC[C@H]1OC(=O)[C@H](C)C(=O)[C@H](C)[C@@H](O[C@@H]2O[C@H](C)C[C@H](N(C)C)[C@H]2O)[C@](C)(OCC=Cc2cnc3ccccc3c2)C[C@@H](C)C(=O)[C@H](C)[C@H]2NC(=O)O[C@@]21C

0.03
0.03
0.004
